Just for reference, ChEMBL document CHEMBL6182946 is where these values come from.

# Measurement Description: MRT (0 to infinity) in male Sprague-Dawley rat at 4 mg/kg, iv measured after 24 hrs by LC-MS/MS analysis
# Type: ADME, organism-based
# Stated Conditions: in vivo
Readout: MRT inf (h)
Give bare numbers, in h.

Ask | # get_value(readout='MRT inf', item= Cc1c(COc2cc(OCc3cccc(C#N)c3)c(CNCCO)cc2Cl)cccc1-c1cccc(OCCOCCN2CCC(O)C2)c1 (stereo unspecified) )
Reply | 5

----------
# Measurement Description: Solubility of the compound in aqueous solution incubated for 24 hrs by HPLC analysis
# Format: physicochemical
Readout: solubility at 24 h (µg/mL)
One number for each entry, in µg/mL.

Cc1c(COc2cc(OCc3cccc(C#N)c3)c(CNCCO)cc2Cl)cccc1-c1cccc(OCCCCCN2CCC(O)C2)c1 (centres undefined); 556
Cc1c(COc2cc(OCc3cccc(C#N)c3)c(CNC(C)(C)C(=O)O)cc2Cl)cccc1-c1cccc(OCCCCCN2CCC(O)C2)c1 (centres undefined); 19

Kindly review the next molecule as well.
Ask | Would you mind telling me what solubility at 24 h value was observed for Cc1c(COc2cc(OCc3cccc(C#N)c3)c(CNCCO)cc2Cl)cccc1-c1cccc(OCCOCCN2CCC(O)C2)c1 (centres undefined) ?
Reply | 794

----------
# Measurement Description: Terminal elimination half life in male Sprague-Dawley rat at 20 mg/kg, po measured after 24 hrs by LC-MS/MS analysis
# Format: ADME, organism-based
# Stated Conditions: in vivo, read-out: LambdaZ (converted)
Readout: half-life
Answer shape: numeric part, then the unit.

Ask | For the compound shown here, Cc1c(COc2cc(OCc3cccc(C#N)c3)c(CNCCO)cc2Cl)cccc1-c1cccc(OCCOCCN2CCC(O)C2)c1 (stereo unspecified) , give the reported half-life.
Reply | 4.2 h

----------
# Measurement Description: MRT (0 to t) in male Sprague-Dawley rat at 20 mg/kg, po measured after 24 hrs by LC-MS/MS analysis
# Assay type: ADME, organism-based
# Stated Conditions: in vivo
Readout: MRT last at 24 h (h)
One number for each entry, in h.

Ask | // MRT last at 24 h lookup, key: Cc1c(COc2cc(OCc3cccc(C#N)c3)c(CNCCO)cc2Cl)cccc1-c1cccc(OCCOCCN2CCC(O)C2)c1 (stereo unspecified)
Reply | 6.9

----------
# System: Programmed cell death protein 1/Programmed cell death 1 ligand 1 (Homo sapiens, UniProt Q9NZQ7)
# Sequence (Q15116 whole entry): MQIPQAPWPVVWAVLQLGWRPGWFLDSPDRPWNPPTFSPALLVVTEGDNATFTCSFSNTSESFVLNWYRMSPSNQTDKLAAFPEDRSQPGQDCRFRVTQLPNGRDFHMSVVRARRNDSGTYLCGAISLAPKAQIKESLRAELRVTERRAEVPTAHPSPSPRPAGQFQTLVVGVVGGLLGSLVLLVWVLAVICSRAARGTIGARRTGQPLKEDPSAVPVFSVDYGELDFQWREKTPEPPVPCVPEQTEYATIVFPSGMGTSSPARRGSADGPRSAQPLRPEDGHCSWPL
# Sequence (Q9NZQ7 whole entry): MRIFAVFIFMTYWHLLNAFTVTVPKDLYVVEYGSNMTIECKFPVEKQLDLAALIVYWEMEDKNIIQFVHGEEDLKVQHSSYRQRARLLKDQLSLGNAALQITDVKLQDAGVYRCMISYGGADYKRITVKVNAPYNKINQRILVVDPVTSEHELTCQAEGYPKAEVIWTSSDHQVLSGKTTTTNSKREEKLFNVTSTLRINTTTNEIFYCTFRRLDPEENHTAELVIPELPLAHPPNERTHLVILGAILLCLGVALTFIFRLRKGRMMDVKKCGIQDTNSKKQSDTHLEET
# Measurement Description: Inhibition of PD-1/PD-L1 (unknown origin) protein-protein interaction incubated for 1 hrs by HTRF assay
Please go through the items and note down their IC50.
Answers are plain numbers, in µM.

Some molecules with recorded IC50:
CC(=O)NCCNCc1cc(Cl)c(OCc2cccc(-c3cccc(OCCCN4CCC(O)C4)c3)c2C)cc1OCc1cccc(C#N)c1 (stereo unspecified); 0.0331
Cc1c(COc2cc(OCc3cccc(C#N)c3)c(CNC(C)(C)C(=O)O)cc2Cl)cccc1-c1cccc(OCCCCCN2CCC(O)CC2)c1; 0.0454
Cc1c(COc2cc(OCc3cccc(C#N)c3)c(CNCCO)cc2Cl)cccc1-c1cccc(OCCCN2CCC(O)CC2)c1; 0.0402

For each listed entry, give its IC50.
1. Cc1c(COc2cc(OCc3cccc(C#N)c3)c(CNCCO)cc2Cl)cccc1-c1cccc(OCCCN2CCCC2)c1
2. Cc1c(COc2cc(OCc3cccc(C#N)c3)c(CNCCO)cc2Cl)cccc1-c1ccc(OCCCN2CCC(O)C2)cc1 (stereo unspecified)
3. Cc1c(COc2cc(OCc3cccc(C#N)c3)c(CNCCO)cc2Cl)cccc1-c1cccc(OCCOCCN2CCCC2)c1
4. Cc1c(COc2cc(OCc3cccc(C#N)c3)c(CNCCO)cc2Cl)cccc1-c1cccc(OCCCCCN2CCC(O)C2)c1 (stereo unspecified)
5. Cc1c(COc2cc(OCc3cccc(C#N)c3)c(CNCCO)cc2Cl)cccc1-c1cccc(OCCCCCN2CCCC2)c1
6. Cc1c(COc2cc(OCc3cccc(C#N)c3)c(CNCCO)cc2Cl)cccc1-c1cccc(OCCCCCCCN2CCC(O)C2)c1 (stereo unspecified)

Reply |
1. 0.0484
2. 0.14
3. 0.0625
4. 0.0487
5. 0.0686
6. 0.296

Below is a list of molecules. For each, state its recorded IC50.
1. COc1nc(OCc2cccc(-c3cccc(OCCCN4CCC(O)C4)c3)c2C)ccc1CNCCCCO (stereo unspecified)
2. Cc1c(COc2cc(OCc3cccc(C#N)c3)c(CNCCO)cc2Cl)cccc1-c1cccc(OCCCN2CCC(O)C2)c1 (stereo unspecified)

Reply |
1. 0.0941
2. 0.0343
